Please respond with reported residual activity for every item in the list.
# subject_of_test: UniProt Q9P0L2
# Sequence (Q9P0L2 whole entry, looked up): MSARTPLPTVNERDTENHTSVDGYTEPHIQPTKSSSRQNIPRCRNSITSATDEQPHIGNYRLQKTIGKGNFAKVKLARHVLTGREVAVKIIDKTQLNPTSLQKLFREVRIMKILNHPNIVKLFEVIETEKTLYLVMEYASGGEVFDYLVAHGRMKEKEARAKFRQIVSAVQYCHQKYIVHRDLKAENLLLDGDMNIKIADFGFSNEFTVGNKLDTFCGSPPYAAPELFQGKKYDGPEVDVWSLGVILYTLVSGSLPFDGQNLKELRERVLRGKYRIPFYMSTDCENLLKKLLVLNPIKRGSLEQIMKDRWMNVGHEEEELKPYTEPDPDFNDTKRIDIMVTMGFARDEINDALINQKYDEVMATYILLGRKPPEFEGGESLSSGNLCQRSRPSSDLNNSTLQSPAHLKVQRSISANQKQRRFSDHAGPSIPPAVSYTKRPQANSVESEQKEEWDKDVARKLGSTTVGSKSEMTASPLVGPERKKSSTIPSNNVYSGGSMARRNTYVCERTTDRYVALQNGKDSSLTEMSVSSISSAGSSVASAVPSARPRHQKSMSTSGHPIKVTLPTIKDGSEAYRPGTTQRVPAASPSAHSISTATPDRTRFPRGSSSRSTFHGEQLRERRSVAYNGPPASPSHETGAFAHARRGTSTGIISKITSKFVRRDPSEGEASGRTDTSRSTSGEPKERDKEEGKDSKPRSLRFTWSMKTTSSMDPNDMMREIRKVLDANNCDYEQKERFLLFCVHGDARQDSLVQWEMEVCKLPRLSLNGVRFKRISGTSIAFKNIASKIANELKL
# protocol_summary: radiometric filter-binding kinase assay, Kinase HotSpot
# measurement_context: compound 0.5 µM; ATP 10 µM
Field format: number, assumed %, no unit text.

The reported residual activity of the molecule `O=C1NC(=O)c2c1c1c3ccccc3[nH]c1n1cncc21` was 36.7

So, `CN(C)c1ccc(/C=C2\C(=O)Nc3ccccc32)cc1` ? Its residual activity was 97.3

Consider `COc1ccc(S(=O)(=O)N(CCO)c2ccccc2CN(C)C/C=C/c2ccc(Cl)cc2)cc1` . Its measured residual activity is 98.4

Measured residual activity, `NC(=O)c1cccc(-c2cc(Nc3ccc(OC(F)(F)F)cc3)ncn2)c1` : 94.7
